The origin of these recorded values is patent US7423054B2.

Structures can show the parent of a compound that is named as a salt.
So I've got pKi readings for human norepinephrine transporter (hNET) (Homo sapiens), take a look.
// pKi here means minus log10 of the molar concentration (mol/L)

Enquiry: Fill in: pKi of Fc1ccc(-n2nc(OC[C@H]3CCCNC3)c3cc(F)ccc32)c(F)c1 [Example 49, hydrochloride] is ___
Return: 7.01

Enquiry: Likewise for Fc1ccc(F)c(-n2nc(OC3CCNCC3)c3cc(F)ccc32)c1 [Example 39, hydrochloride] ?
Return: 8.02

Enquiry: Likewise for Fc1cccc(-n2nc(OC[C@H]3CCCNC3)c3cc(F)ccc32)c1 [Example 78, hydrochloride] ?
Return: 7.99

Enquiry: Likewise for COc1cccc2c(OC3CCNCC3)nn(-c3ccccc3)c12 [Example 60, hydrochloride] ?
Return: 6.66

Enquiry: Likewise for Fc1ccccc1-n1nc(OC[C@H]2CCCNC2)c2c(F)cccc21 [Example 85, hydrochloride] ?
Return: 7.90

Enquiry: Likewise for Fc1ccc(F)c(-n2nc(OC3CCNCC3)c3cc(Cl)ccc32)c1 [Example 58, hydrochloride] ?
Return: 7.25

Enquiry: Likewise for Fc1ccc(F)c(-n2nc(OC[C@@H]3CNCCO3)c3c(F)cccc32)c1 [Example 95, hydrochloride] ?
Return: 8.26

Enquiry: Likewise for Fc1cccc(-n2nc(OC3CCNCC3)c3cc(F)ccc32)c1 [Example 77, hydrochloride] ?
Return: 7.61
